Source listed as patent US20200079833A1.

Molecular target: GLP-1 receptor (human, UniProt P43220 24-463)
Assay: cell-based or functional assay
Starred links: 1 amine or outer side, 2 acyl side, 3 side chain; linkers in the order of their positions; H or OH if unused. Non-standard residues stand in square brackets, D forms with d. Groups on a side chain read outwards from the residue. Primed or numbered codes have the meaning given here. No end group written: not given here. *: point of attachment. γGlu = O=C(O)[C@H](CCC(=O)[*:2])N[*:1]; Stearoyl = CCCCCCCCCCCCCCCCCC(=O)*; αMeF = C[C@](N)(Cc1ccccc1)C(=O)O; αMeK = C[C@](N)(CCCCN)C(=O)O; αMeS = C[C@](N)(CO)C(=O)O; PEG2′ = not defined here; Aib = CC(C)(N)C(=O)O
Parameter threshold = 3 pM. Response is TRUE when Primary assay EC50 (cAMP), n1 meets or exceeds it, else FALSE.

Some solved cases for reference:
HXEGTFTSDVXSYLEGQAAKEFIAWLVKGR (Aib 2; Aib 11; C-terminal amide) [SEQ ID NO 22] | TRUE
H[Aib]EGS[αMeF]TSDV[αMeS]S[αMeF]LEGEAAK([PEG2′-PEG2′-γGlu-Stearoyl])EFIA[αMeF]VV[αMeK]GG-NH2 [SEQ ID NO 48] | TRUE
H[Aib]EGS[αMeF]TSDVSS[αMeF]LEGEAAK([PEG2′-PEG2′-PEG2′-Stearoyl])E[αMeF]IA[αMeF]VV[αMeK]GG-NH2 [SEQ ID NO 52] | FALSE
H[Aib]EGS[αMeF]TSDVSK([PEG2′-PEG2′-PEG2′-Stearoyl])YLEGEAA[Aib]E[αMeF]IA[αMeF]VVEGG-NH2 [SEQ ID NO 63] | TRUE

Pending binder:
Asked: Record H[Aib]EGSFTSDV[αMeS]S[αMeF]LEGEAAK([PEG2′-PEG2′-PEG2′-Stearoyl])E[αMeF]IA[αMeF]VV[αMeK]GG-NH2 [SEQ ID NO 51] ; criterion: Primary assay EC50 (cAMP), n1 no lower than 3 pM. Met?
Given back: FALSE
